Would you mind telling me the reported IC50 of each entry?
Tested on: DLD-1
Assay: Compound was evaluated for in vitro antiproliferative activity against DLD-1 human colon cancer cell line
Format: functional, cell-based
Lab book: enter the figure in nM, no units written.

Specify IC50 for COCOCCC1(O)C(=O)OCc2c1cc1n(c2=O)Cc2c-1nc1cc3c(cc1c2CCl)OCCO3 (centres undefined) and stop. 108

Please supply the value of reported IC50 for the item CC(C)NCCc1c2c(nc3ccccc13)-c1cc3c(c(=O)n1C2)COC(=O)C3(O)CCO (centres undefined) 619

Given COCOCCC1(O)C(=O)OCc2c1cc1n(c2=O)Cc2c-1nc1ccccc1c2CCNC(C)C (centres undefined) , respond with its IC50. 549

Indicate the recorded IC50 value for this compound: CCC1(O)C(=O)OCc2c1cc1n(c2=O)Cc2c-1nc1cc3c(cc1c2CCl)OCCO3 (centres undefined) 2780
